Listing: koff of selected binders
# subjectOfTest: T1, recombinant human TIGIT-Fc carrier-free protein (Homo sapiens (Human)., UniProt Q495A1-1)
# T1 construct: T cell Ig and ITIM domain receptor (TIGIT), human; also called hTIGIT-Fc; human TIGIT recombinant protein; source: bought: Biolegend (Cat. No. 768608)
# experimentalDetails: SPR; Biacore T200; m/hTIGIT-Fc (10 µg/mL in 10 mM Na-acetate pH 4.0) immobilised on a CM5 chip; Nbs or scFv injected in two-fold dilutions from 200 nM, 10 µl/min, 25°C; HBS pH 7.4 (0.01 M HEPES, 0.15 M NaCl, 3 mM EDTA, 0.005% Tween 20); fit 1:1 binding with drift and RI2
# conditionDetails: both partners purified
Numbers only here, please. The scale is s⁻¹.

Example cases with answers are listed next.
# binder, koff, s⁻¹
measured = [
    ("anti-hTIGIT Nb 16920 (VHH, nanobody from an immunized llama; Cloned in pHen6 after PCR with primers A6E and PMCF; source: E. coli WK6, periplasmic extract, purified (Ni-NTA, SEC); not shown: His6, C-terminal, kept) VHH: QVQLQESGGGFVQAGGSLRLSCAASSISSIYAMDWYRQAPGKQREFVAGITSGGTTNYGSTVKGRFTISRDESKNTVDLQMNSLKPEDSAVYVCRATISWKIYSGQGTQVTVSS", 0.00426),
    ("anti-hTIGIT Nb 16925 (VHH, nanobody from an immunized llama; Cloned in pHen6 after PCR with primers A6E and PMCF; source: E. coli WK6, periplasmic extract, purified (Ni-NTA, SEC); not shown: His6, C-terminal, kept) VHH: QVQLQESGGGLVQAGGSLRLSCAASSISSINAMGWYRQPPGKQRELVARITFGHSTNYADSVKGRFTISRDNAKSTVYLQMNSLKPEDTAVYYCNADLLLNTQAIRAWGQGTQVTVSS", 0.000911),
    ("anti-hTIGIT Nb 17018 (VHH, nanobody from an immunized llama; Cloned in pHen6 after PCR with primers A6E and PMCF; source: E. coli WK6, periplasmic extract, purified (Ni-NTA, SEC); not shown: His6, C-terminal, kept) VHH: QVQLQESGGGLVQAGGSLRLSCTASSIFSINAMGWYRQTPGKQRELVARITNGSSTNYADSVKGRFTISRDNAKNTVYLQMNSLKPEDTAVYYCHTDLLLEVGAMRYWGQGTQVTVSS", 0.000496),
]

Would you kindly look at the next entry?
Task: Query koff for anti-hTIGIT Nb 17010 (VHH, nanobody from an immunized llama; Cloned in pHen6 after PCR with primers A6E and PMCF; source: E. coli WK6, periplasmic extract, purified (Ni-NTA, SEC); not shown: His6, C-terminal, kept) VHH: QVQLQESGGGSVQTGGSLRLSCAASNGFSINAMGWYRQSPGKQRELVARITSGSSTNYTNYADSVKGRFTISRDNAKNTGYLEMNLLKPEDTAVYYCHADVLLGGLQGLIQRFWGQGTQVTVSS
Result: 0.000803

Origin of the recorded values: paper PMC10548220
